FYI, the data here is from patent US12691070B2.

test system: Alanine Aminotransferase (ALT); experiment: Liver enzyme elevation in serum, ALT; format: in vivo; conditions: cirRNA (SEQ ID NO: 1) LNPs; BALB/C mice; intravenous 0.5 MPK; 24 hours
As shown below, each of these molecules has a reported ALT in Sera (IU/L) 24 hours After 0.5 MPK Injection value.
outcomeMeasure: ALT in Sera (IU/L) 24 hours After 0.5 MPK Injection

1. CCCCC/C=C\CCOC(=O)CCCCCN(CCCCCC(=O)OCC(CCCCCCCC)CCCCCCCCCC)CCOC(=O)NCCN1CCCCC1 (stereo not shown) ... 107.33 IU/L
2. CCCCCCCCCCCOC(=O)CCCCCN(CCCCCCCC(=O)OC(CCCCCCCC)CCCCCCCC)CCOC(=O)NCCN1CCCCC1 ... 61.47 IU/L
3. CCCCCCCCC(CCCCCCCC)OC(=O)CCCCCCCN(CCCCCCCCOC(=O)C(CCCCCC)CCCCCCCC)CCCOC(=O)NCCN1CCCCC1 (stereo not shown) ... 149.33 IU/L
4. CCCCC/C=C\C/C=C\CCCCCCCCN(CCCCCCCC(=O)OC(CCCCCCCC)CCCCCCCC)CCCOC(=O)NCCCn1ccnc1 ... 52.00 IU/L
5. CCCCCCCCC(CCCCCCCC)OC(=O)CCCCCCCN(CCCCCCCCOC(=O)C(CCCCCC)CCCCCCCC)CCCOC(=O)NCCN1CCCC1 (stereo not shown) ... 121.33 IU/L
6. CCCCC/C=C\C/C=C\CCCCCCCCN(CCCCCCCC(=O)OC(CCCCCCCC)CCCCCCCC)CCOC(=O)NCc1ncc[nH]1 ... 44.73 IU/L
7. CCCCC/C=C\C/C=C\CCCCCCCCN(CCCCCCCC(=O)OC(CCCCCCCC)CCCCCCCC)CCOC(=O)NCCN1CCCC1 ... 56.00 IU/L

---

experiment: LNP zeta potential (Zetasizer); type: physicochemical; details: LNP with cirRNA (SEQ ID NO: 1)
Entries and their Zeta (mV)
outcomeMeasure: Zeta (mV)

1. CCCCC/C=C\CCOC(=O)CCCCCN(CCCCCC(=O)OCC(CCCCCCCC)CCCCCCCCCC)CCOC(=O)NCCN1CCCC1 (centres unmarked) ... −0.164 mV
2. CCCCCCCCCCCOC(=O)CCCCCN(CCCCCCCC(=O)OC(CCCCCCCC)CCCCCCCC)CCOC(=O)NCc1ncc[nH]1 ... −5.631 mV
3. CCCCCCCCCCC(CCCCCCCC)COC(=O)CCCCCN(CCCCCC(=O)OCC(CCCCCCCC)CCCCCCCCCC)CCOC(=O)NCCCn1ccnc1 (centres unmarked) ... −3.412 mV
4. CCCCCCCCCC(=O)OCCCCCCCN(CCCCCCCCOC(=O)C(CCCCCC)CCCCCCCC)CCOC(=O)NCc1ncc[nH]1 (centres unmarked) ... −3.471 mV
5. CCCCCCCCCCC(CCCCCCCC)COC(=O)CCCCCN(CCCCCC(=O)OCC(CCCCCCCC)CCCCCCCCCC)CCOC(=O)NCCCN(C)C (centres unmarked) ... 4.157 mV

---

test: LNP zeta potential (Zetasizer); assay type: physicochemical; conditions: LNP with cirRNA (SEQ ID NO: 1)
Assign 1 whenever Zeta (mV) does not fall below 3 mV; assign -1 whenever it does.

1) CCCCCCCCC(CCCCCC)C(=O)OCCCCCCCCN(CCCCCCCCOC(=O)C(CCCCCC)CCCCCCCC)CCCOC(=O)NCc1ncc[nH]1 (stereo not drawn) ... -1
2) CCCCCCCCC(CCCCCC)C(=O)OCCCCCCCCN(CCCCCCCCOC(=O)C(CCCCCC)CCCCCCCC)CCCOC(=O)NCCN1CCC1 (stereo not drawn) ... 1
3) CCCCCCCCCC(=O)OCCCCCCCN(CCCCCCCCOC(=O)C(CCCCCC)CCCCCCCC)CCOC(=O)NCCCN(C)C (stereo not drawn) ... 1
4) CCCCC/C=C\CCOC(=O)CCCCCN(CCCCCCCCOC(=O)C(CCCCCC)CCCCCCCC)CCOC(=O)NCCN1CCCC1 (stereo not drawn) ... 1
5) CCCCCCCCCC(=O)OCCCCCCCN(CCCCCCCCOC(=O)C(CCCCCC)CCCCCCCC)CCCOC(=O)NCCN(C)C (stereo not drawn) ... 1
6) CCCCCCOC(=O)CCCCCCCCCCN(CCCCCCCCCCC(=O)OCCCCCC)CCOC(=O)NCCN1CCN(C)CC1 ... 1
7) CCCCCCCCC(CCCCCCCC)OC(=O)CCCCCCCN(CCCCCCCCOC(=O)C(CCCCCC)CCCCCCCC)CCOC(=O)NCCCn1ccnc1 (stereo not drawn) ... 1
8) CCCCC/C=C\C/C=C\CCCCCCCCN(CCCCCCCC/C=C\C/C=C\CCCCC)CCOC(=O)NCCN1CCCCC1 ... 1
9) CCCCCCCCCC(=O)OCCCCCCCN(CCCCCCCCOC(=O)C(CCCCCC)CCCCCCCC)CCOC(=O)NCCCN1CCCCC1 (stereo not drawn) ... -1
10) CCCCC/C=C\C/C=C\CCCCCCCCN(CCCCCCCC(=O)OC(CCCCCCCC)CCCCCCCC)CCOC(=O)NCCCN(CC)CC ... 1
11) CCCCCCCCCCCOC(=O)CCCCCN(CCCCCCCC(=O)OC(CCCCCCCC)CCCCCCCC)CCOC(=O)NCCN1CCCC1 ... 1
12) CCCCCCCOC(=O)CCCCCCCCCN(CCCCCCCCCC(=O)OCCCCCCC)CCOC(=O)NCCN(C)C ... 1
13) CCCCC/C=C\C/C=C\CCCCCCCCN(CCCCCCCC(=O)OC(CCCCCCCC)CCCCCCCC)CCOC(=O)NCCN(C)C ... -1
14) CCCCC/C=C\C/C=C\CCCCCCCCN(CCCCCCCC(=O)OC(CCCCCCCC)CCCCCCCC)CCCOC(=O)NCCN1CCCCC1 ... -1
15) CCCCCCCCC(CCCCCC)C(=O)OCCCCCCCCN(CCCCCCCCOC(=O)C(CCCCCC)CCCCCCCC)CCCOC(=O)NCCN(C)C (stereo not drawn) ... 1
16) CCCCCCCCCC(=O)OCCCCCCCN(CCCCCCCCOC(=O)C(CCCCCC)CCCCCCCC)CCOC(=O)NCCN(C)C (stereo not drawn) ... 1
17) CCCCCCCCCCC(CCCCCCCC)COC(=O)CCCCCN(CCCCCC(=O)OCC(CCCCCCCC)CCCCCCCCCC)CCCOC(=O)NCCCN(CC)CC (stereo not drawn) ... -1
18) CCCCCCCCC(CCCCCC)C(=O)OCCCCCCCCN(CCCCCCCCCCC(=O)OCCCCCC)CCOC(=O)NCCN(C)C (stereo not drawn) ... -1
19) CCCCC/C=C\C/C=C\CCCCCCCCN(CCCCCCCC(=O)OC(CCCCCCCC)CCCCCCCC)CCCOC(=O)NCCN(C)C ... 1
20) CCCCCCOC(=O)CCCCCCCCCCN(CCCCCCCCCCC(=O)OCCCCCC)CCOC(=O)NCCCN(CC)CC ... 1
21) CCCCCCCCCCCOC(=O)CCCCCN(CCCCCCCC(=O)OC(CCCCCCCC)CCCCCCCC)CCOC(=O)NCCCn1ccnc1 ... -1
22) CCCCCCCC/C=C\CCCCCCCCN(CCCCCCCCOC(=O)C(CCCCCC)CCCCCCCC)CCOC(=O)NCCN1CCCC1 (stereo not drawn) ... 1
23) CCCCCCCCCCC(CCCCCCCC)COC(=O)CCCCCN(CCCCCC(=O)OCC(CCCCCCCC)CCCCCCCCCC)CCOC(=O)NCCN1CCN(C)CC1 (stereo not drawn) ... -1
24) CCCCCCCCC(CCCCCCCC)OC(=O)CCCCCCCN(CCCCCCCCOC(=O)C(CCCCCC)CCCCCCCC)CCCOC(=O)NCc1ncc[nH]1 (stereo not drawn) ... -1
25) CCCCC/C=C\CCOC(=O)CCCCCN(CCCCCC(=O)OCC(CCCCCCCC)CCCCCCCCCC)CCOC(=O)NCCN1CCCCC1 (stereo not drawn) ... -1
26) CCCCCCCCC(CCCCCCCC)OC(=O)CCCCCCCN(CCCCCCCCOC(=O)C(CCCCCC)CCCCCCCC)CCCOC(=O)NCCN(C)C (stereo not drawn) ... -1
